meta.source: patent US20240101668A1

Molecular target: T1, huFLT3-M227 stably expressed on Ramos cells (human, UniProt P36888 27-993)
T1 construct: whole, on cells; also called FLT3 Mutant
T1 sequence (P36888 27-993 T227M): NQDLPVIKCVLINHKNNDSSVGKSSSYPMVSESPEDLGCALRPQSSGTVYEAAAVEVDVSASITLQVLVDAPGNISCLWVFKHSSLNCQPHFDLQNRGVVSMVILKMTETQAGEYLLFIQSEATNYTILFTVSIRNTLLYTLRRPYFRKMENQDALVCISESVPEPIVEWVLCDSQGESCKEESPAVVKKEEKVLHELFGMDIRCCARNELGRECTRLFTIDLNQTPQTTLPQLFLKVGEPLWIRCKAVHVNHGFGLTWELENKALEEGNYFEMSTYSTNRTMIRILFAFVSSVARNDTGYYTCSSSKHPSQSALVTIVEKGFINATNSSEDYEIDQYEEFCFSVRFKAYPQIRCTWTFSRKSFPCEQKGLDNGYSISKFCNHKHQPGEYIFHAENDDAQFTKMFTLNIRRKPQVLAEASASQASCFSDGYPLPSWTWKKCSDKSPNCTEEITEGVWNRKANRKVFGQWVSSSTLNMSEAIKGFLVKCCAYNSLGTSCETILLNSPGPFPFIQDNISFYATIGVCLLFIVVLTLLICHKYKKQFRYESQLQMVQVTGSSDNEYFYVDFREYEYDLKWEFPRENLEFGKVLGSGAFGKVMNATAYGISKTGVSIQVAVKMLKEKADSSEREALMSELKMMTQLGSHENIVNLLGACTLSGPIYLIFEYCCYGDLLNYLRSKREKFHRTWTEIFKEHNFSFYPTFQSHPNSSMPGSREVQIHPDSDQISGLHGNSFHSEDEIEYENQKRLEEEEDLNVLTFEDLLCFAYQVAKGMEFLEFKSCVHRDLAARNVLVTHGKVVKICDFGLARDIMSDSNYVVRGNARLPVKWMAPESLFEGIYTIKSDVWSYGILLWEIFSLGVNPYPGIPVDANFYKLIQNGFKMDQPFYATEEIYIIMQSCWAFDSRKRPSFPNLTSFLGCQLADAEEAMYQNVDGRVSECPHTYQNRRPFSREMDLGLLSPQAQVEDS
Test: FACS on cells
Kindly state FACS geometric mean fold change over Jurkat parental for each of the entries shown.

Ask: Query FACS geometric mean fold change over Jurkat parental for Polypeptide No. 287 (scFv, V domains shown, scFv) VH: QVQLVQSGAEVKKPGASVKVSCKASGYTFTRHYVHWVRQAPGQGLEWVGIINPSSGSASYAQKFQGRVTMTRDTSTSTVYMELSSLRSEDTAVYYCARDRLRSRFDYWGQGTLVTVSS VL: DIQMTQSPSSLSASVGDRVTITCRASQSISSSLAWYQQKPGKAPKLLIYAASSLQSGVPSRFSGSGSGTDFTLTISSLQPEDFATYYCQQSYTIPPTFGQGTKLEIKR
Result: 2 to 10 fold

Ask: Could you please provide reported FACS geometric mean fold change over Jurkat parental for Polypeptide No. 231 (scFv, V domains shown, scFv) VH: QVQLVQSGAEVKKPGASVKVSCKASGYTFTSYYIHWVRQAPGQGLEWMGLINPSGGSTTYAQSFQGRVTMTRDTSTSTVYMELSSLRSEDTAVYYCARGLGWGVVVPAAELDYWGQGTLVTVSS VL: DIQMTQSPSSLSASVGDRVTITCRASQSISTYLNWYQQKPGKAPKLLIYAASNLQSGVPSRFSGSGSGTDFTLTISSLQPEDFATYYCQQSYSSPLTFGPGTKVDIKR ? Thanks!
Result: > 30 fold

Ask: Report FACS geometric mean fold change over Jurkat parental, nothing else, for this binder: Polypeptide No. 229 (scFv, V domains shown, scFv) VH: QVQLVQSGAEVKKPGASVKVSCKASGYTFTNYYMHWVRQAPGQGLEWMGIINPSGGSTSYAQKFQGRVTMTRDTSTSTVYMELSSLRSEDTAVYYCARGVGYSGYGADLWGRGTLVTVSS VL: DIQMTQSPSSLSASVGDRVTITCRASQGISNSLAWYQQKPGKAPKLLIYAASSLQSGVPSRFSGSGSGTDFTLTISSLQPEDFATYYCQQSHSPPYTFGQGTKLEIKR
Result: > 30 fold
